# System: MCF7
# assay.name: Cytotoxicity against human MCF7 cells after 48 hrs by sulforhodamine B assay
# Type: functional
# experimental.setup: MCF7, 48 h
measurement.kind: GI50 (µg/mL)
Could you give me the number in µg/mL? Just the number is fine.

Please tell me the measured GI50 for `COc1ccc(/C=C\c2cc(Br)c(OC)c(OC)c2)cc1OP(=O)([O-])[O-].[Ca+2]` ; system: MCF7.
0.0022

Please tell me the measured GI50 for `COc1ccc(/C=C\c2cc(O)c(OC)c(OC)c2)cc1N` ; system: MCF7.
0.06

Please tell me the measured GI50 for `COc1ccc(/C=C\c2cc(Br)c(OC)c(OC)c2)cc1OP(=O)([O-])[O-].[Cs+].[Cs+]` ; system: MCF7.
0.0044

Please tell me the measured GI50 for `C1CCNCC1.C1CCNCC1.COc1ccc(/C=C\c2cc(F)c(OC)c(OC)c2)cc1OP(=O)(O)O` ; system: MCF7.
0.011

Please tell me the measured GI50 for `COc1ccc(/C=C\c2cc(Br)c(OC)c(OC)c2)cc1OP(=O)([O-])[O-].[K+].[K+]` ; system: MCF7.
0.0035

Please tell me the measured GI50 for `COc1ccc(/C=C/c2cc(F)c(OC)c(OC)c2)cc1O` ; system: MCF7.
0.051

Please tell me the measured GI50 for `COc1ccc(/C=C\c2cc(O)c(OC)c(OC)c2)cc1[N+](=O)[O-]` ; system: MCF7.
0.49

Please tell me the measured GI50 for `COc1ccc(/C=C\c2cc(F)c(OC)c(OC)c2)cc1OP(=O)([O-])[O-].[Li+].[Li+]` ; system: MCF7.
0.0038

Please tell me the measured GI50 for `COc1ccc(/C=C/c2cc(OC)c(OC)c(O[Si](C)(C)C(C)(C)C)c2)cc1[N+](=O)[O-]` ; system: MCF7.
3.2

* * *

# Tested on: Staphylococcus aureus
# assay.name: Antimicrobial activity against Staphylococcus aureus ATCC 29213 at 64 ug/mL after 24 hrs by broth microdilution assay
# Type: functional, organism-based
Calls of active or inactive are those of the source. No cut-off for these calls is given here.
measurement.kind: Activity

Here are 4 compounds together with their reported answers.
COc1ccc(/C=C\c2cc(Br)c(OC)c(OC)c2)cc1O : inactive
COc1ccc(/C=C\c2cc(F)c(OC)c(OC)c2)cc1OP(=O)(O)O : inactive
COc1ccc(/C=C\c2cc(F)c(OC)c(OC)c2)cc1O [FLUORCOMBSTATIN] : inactive
COc1ccc(/C=C\c2cc(Cl)c(OC)c(OC)c2)cc1O : inactive

Read the next record carefully.
Consider the compound `COc1ccc(/C=C/c2cc(Br)c(OC)c(OC)c2)cc1O` and give its recorded Activity.
inactive

* * *

Give measured GI50 for each item. Keep answers brief.
# System: SF-268
# assay.name: Cytotoxicity against human SF268 cells after 48 hrs by sulforhodamine B assay
# Assay type: functional
# experimental.setup: SF-268, 48 h
Could you give me the number in ng/mL? Just the number is fine.

Consider the molecule `COc1ccc(/C=C\c2cc(F)c(OC)c(OC)c2)cc1OP(=O)([O-])[O-].[Li+].[Li+]` and give its recorded GI50.
4

Consider the molecule `COc1ccc(/C=C\c2cc(O)c(OC)c(OC)c2)cc1[N+](=O)[O-]` and give its recorded GI50.
620

Consider the molecule `COc1ccc(/C=C\c2cc(O)c(OC)c(OC)c2)cc1O` and give its recorded GI50.
8.3

Consider the molecule `COc1ccc(/C=C\c2cc(Br)c(OC)c(OC)c2)cc1OP(=O)([O-])[O-].[K+].[K+]` and give its recorded GI50.
3.2

Consider the molecule `C1CCNCC1.C1CCNCC1.COc1ccc(/C=C\c2cc(F)c(OC)c(OC)c2)cc1OP(=O)(O)O` and give its recorded GI50.
7.5

* * *

# System: MCF7
# assay.name: Cytotoxicity against human MCF7 cells after 48 hrs by sulforhodamine B assay
# Format: functional
# experimental.setup: MCF7, 48 h
Give measured GI50 for each item. Keep answers brief.
Could you give me the number in µg/mL? Just the number is fine.

Consider the compound `COc1cc(/C=C\c2ccc(OC)c(OP(=O)([O-])[O-])c2OP(=O)([O-])[O-])cc(OC)c1OC.[Na+].[Na+].[Na+].[Na+]` and give its recorded GI50.
0.024

Consider the compound `COc1ccc(/C=C\c2cc(Br)c(OC)c(OC)c2)cc1OP(=O)([O-])[O-].[Li+].[Li+]` and give its recorded GI50.
0.0039

Consider the compound `COc1ccc(/C=C\c2cc(OC)c(OC)c([N+](=O)[O-])c2)cc1[N+](=O)[O-]` and give its recorded GI50.
0.37

Consider the compound `COc1ccc(/C=C\c2cc(F)c(OC)c(OC)c2)cc1OP(=O)([O-])[O-].[Na+].[Na+]` and give its recorded GI50.
0.0044

Consider the compound `COc1ccc(/C=C/c2cc(Br)c(OC)c(OC)c2)cc1O` and give its recorded GI50.
0.14

Consider the compound `COc1ccc(/C=C\c2cc(Br)c(OC)c(OC)c2)cc1OP(=O)([O-])[O-].[Na+].[Na+]` and give its recorded GI50.
0.0041

Consider the compound `COc1ccc(/C=C\c2cc(O)c(OC)c(OC)c2)cc1O` and give its recorded GI50.
0.49

Consider the compound `COc1ccc(/C=C\c2cc(Cl)c(OC)c(OC)c2)cc1O` and give its recorded GI50.
0.0026

Consider the compound `COc1ccc(/C=C\c2cc(Br)c(OC)c(OC)c2)cc1OP(=O)([O-])[O-].[Mg+2]` and give its recorded GI50.
0.0045

Consider the compound `COc1ccc(/C=C\c2cc(Br)c(OC)c(OC)c2)cc1OP(=O)([O-])[O-].[Rb+].[Rb+]` and give its recorded GI50.
0.043

* * *

Give measured Activity for each item. Keep answers brief.
# assay.name: Displacement of [3H]colchicine from tubulin
Could you give me the number in %? Just the number is fine.

Consider the molecule `COc1ccc(/C=C\c2cc(Br)c(OC)c(OC)c2)cc1O` and give its recorded Activity.
89

Consider the molecule `COc1ccc(/C=C\c2cc(OC)c(OC)c(OC)c2)cc1O` and give its recorded Activity.
81

Consider the molecule `COc1ccc(/C=C\c2cc(Cl)c(OC)c(OC)c2)cc1O` and give its recorded Activity.
85

Consider the molecule `COc1ccc(/C=C\c2cc(F)c(OC)c(OC)c2)cc1O` and give its recorded Activity.
75

* * *

# System: SF-268
# assay.name: Cytotoxicity against human SF268 cells after 48 hrs by sulforhodamine B assay
# Format: functional
# experimental.setup: SF-268, 48 h
Lab note: class by GI50, see low end (below 5 ng/mL), middle (5 ng/mL to below 40 ng/mL), high end (40 ng/mL or more)

Which of the defined bands does the recorded GI50 of `COc1ccc(/C=C\c2cc(OC)c(OC)c(OC)c2)cc1O` sit within?
low end

Which of the defined bands does the recorded GI50 of `COc1ccc(/C=C\c2cc(Br)c(OC)c(OC)c2)cc1OP(=O)([O-])[O-].[Li+].[Li+]` sit within?
low end

Which of the defined bands does the recorded GI50 of `C1COCCN1.C1COCCN1.COc1ccc(/C=C\c2cc(F)c(OC)c(OC)c2)cc1OP(=O)(O)O` sit within?
middle

Which of the defined bands does the recorded GI50 of `COc1ccc(/C=C/c2cc(Cl)c(OC)c(OC)c2)cc1O` sit within?
high end

Which of the defined bands does the recorded GI50 of `COc1ccc(/C=C\c2cc(Br)c(OC)c(OC)c2)cc1OP(=O)([O-])[O-].[Mg+2]` sit within?
middle

Which of the defined bands does the recorded GI50 of `COc1ccc(/C=C\c2cc(N)c(OC)c(OC)c2)cc1N` sit within?
high end

Which of the defined bands does the recorded GI50 of `COc1ccc(/C=C\c2cc(Cl)c(OC)c(OC)c2)cc1O` sit within?
low end

Which of the defined bands does the recorded GI50 of `COc1ccc(/C=C/c2cc(OC)c(OC)c(O[Si](C)(C)C(C)(C)C)c2)cc1[N+](=O)[O-]` sit within?
high end

Which of the defined bands does the recorded GI50 of `COc1ccc(/C=C\c2cc(Br)c(OC)c(OC)c2)cc1OP(=O)([O-])[O-].[Rb+].[Rb+]` sit within?
middle

Which of the defined bands does the recorded GI50 of `COc1ccc(/C=C/c2cc(O)c(OC)c(OC)c2)cc1[N+](=O)[O-]` sit within?
high end

Which of the defined bands does the recorded GI50 of `COc1ccc(/C=C\c2cc(Br)c(OC)c(OC)c2)cc1OP(=O)([O-])[O-].[Na+].[Na+]` sit within?
low end

Which of the defined bands does the recorded GI50 of `COc1cc(/C=C\c2ccc(OC)c(OP(=O)([O-])[O-])c2OP(=O)([O-])[O-])cc(OC)c1OC.[Na+].[Na+].[Na+].[Na+]` sit within?
middle

Which of the defined bands does the recorded GI50 of `COc1ccc(/C=C\c2cc(O)c(OC)c(OC)c2)cc1N.Cl` sit within?
low end

Which of the defined bands does the recorded GI50 of `COc1ccc(/C=C\c2cc(F)c(OC)c(OC)c2)cc1O` sit within?
low end

Which of the defined bands does the recorded GI50 of `COc1ccc(/C=C\c2cc(Br)c(OC)c(OC)c2)cc1O` sit within?
low end

Which of the defined bands does the recorded GI50 of `COc1ccc(/C=C\c2cc(F)c(OC)c(OC)c2)cc1OP(=O)([O-])[O-].[K+].[K+]` sit within?
low end

Which of the defined bands does the recorded GI50 of `COc1ccc(/C=C\c2cc(OC)c(OC)c([N+](=O)[O-])c2)cc1[N+](=O)[O-]` sit within?
high end

Where do these numbers come from? They come from ChEMBL document CHEMBL1151261.
